test target: T1, human CD3 expressed on cells (human, UniProt P07766 23-207; P04234 22-171; P09693 23-182)
T1 construct: whole, on cells; CD3 complex on Jurkat cells and on human primary T cells
T1 sequence (P07766 23-207, chain 1 of 3): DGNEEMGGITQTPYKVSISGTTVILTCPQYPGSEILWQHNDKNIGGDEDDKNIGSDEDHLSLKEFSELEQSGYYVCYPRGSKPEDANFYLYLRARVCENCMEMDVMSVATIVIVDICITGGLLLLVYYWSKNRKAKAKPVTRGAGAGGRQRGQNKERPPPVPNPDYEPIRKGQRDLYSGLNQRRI
T1 sequence (P04234 22-171, chain 2 of 3): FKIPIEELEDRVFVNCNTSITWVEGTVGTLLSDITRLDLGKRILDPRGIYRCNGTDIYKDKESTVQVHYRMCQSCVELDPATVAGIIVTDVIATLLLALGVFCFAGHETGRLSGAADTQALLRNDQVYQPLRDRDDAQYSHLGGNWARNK
T1 sequence (P09693 23-182, chain 3 of 3): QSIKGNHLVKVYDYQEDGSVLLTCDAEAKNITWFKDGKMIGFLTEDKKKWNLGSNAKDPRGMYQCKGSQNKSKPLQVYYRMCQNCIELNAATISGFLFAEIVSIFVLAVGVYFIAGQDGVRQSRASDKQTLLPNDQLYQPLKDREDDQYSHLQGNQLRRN
protocol details: flow cytometry, 25 nM
experimental endpoint: Human primary T Cell Binding (FOI)

| binder | experimental endpoint | result |
| --- | --- | --- |
| mAb 73 (antibody, V domains shown) VH: EVELVESGGGLVQPGRSLRLSCAASGFTFDDKVMHWVRQAPGKGLEWVSCINWNSGHIGYADSVKGRFTISRDNARTSLYLQMNSLRPEDTALYYCVREGNYDFWSGYYRGFFDLWGRGTLVTVSS VL: DIQMTQSPSSLSASVGDRVTITCRASQGIRNDLGWYQQKPGKAPKRLIYAASSLQGGVPSRFSGSGSGTEFTLTISSLQPEDFATYYCLQHTSYPFTFGQGTKLEIK | Human primary T Cell Binding (FOI) | 74.5 FOI |
| mAb 86 (antibody, V domains shown) VH: QVQLAESGGGVVQPGRSLRLSCEASGFTFSGYGMHWVRQAPGKGLDWVAIIYYDGKNKYYADSVKGRFTISRDNSKNTLYLQMNSLRAEDTAVYYCARGGGYNWFDPWGQGTLVTVSS VL: DIQMTQSPSSLSASVGDRVTITCRPSQTISKYLNWYQQKPGKAPKLLIYAASSLQSGVPSRFSGSGSGTDFTLTISSLQPEDFATYYCQQSYITPITFGRGTRLEIK | Human primary T Cell Binding (FOI) | 189 FOI |

Data origin: patent US20230295310A1
